target: Aldo-keto reductase family 1 member B1 (Rattus norvegicus); assay: biochemical; format: tissue-based, Lens of camera-type eye; also: in other assays of this panel Not Active means under 50% inhibition at 10 µM;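 also: inhibition of aldose reductase enzyme activity, measured with DL-glyceraldehyde as the substrate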
testReadout: IC50

The examples below pair each entry with its known result.
The reported value for Cc1ccnc(NS(=O)(=O)c2ccc(N)cc2)n1 in terms of IC50 is Not Active

The reported value for CC(C)Cn1cnc2c(N)nc3ccccc3c21 in terms of IC50 is Not Active

The reported value for CC(C)(C#N)c1cc(Cn2cncn2)cc(C(C)(C)C#N)c1 in terms of IC50 is Not Active

The reported value for CCO in terms of IC50 is Not Active

The reported value for CO[C@@]12[C@H](COC(N)=O)C3=C(C(=O)C(C)=C(N)C3=O)N1C[C@@H]1N[C@@H]12 in terms of IC50 is Not Active

Record IC50 for all entries; do not skip any.
1. Cc1ccc(Cl)c(Nc2ccccc2C(=O)O)c1Cl
2. OC[C@@H](O)[C@@H](O)[C@H](O)[C@H](O)CO
3. CC(CN1c2ccccc2Sc2ccccc21)N(C)C (stereo unspecified)
4. Clc1cc(Cl)c(OCC#CI)cc1Cl
5. CNC[C@H](O)c1ccc(O)c(O)c1 [EPINEPHRINE]

1: Not Active; 2: Not Active; 3: Not Active; 4: Not Active; 5: Not Active

Record IC50 for all entries; do not skip any.
1. NC(N)=Nc1nc(CSCCC(N)=NS(N)(=O)=O)cs1
2. O=C1c2ccccc2C(=O)C1c1ccccc1
3. Oc1ccc(/C=C/c2cc(O)cc(O)c2)cc1
4. CCOC(=O)C1=C(C)NC(C)=C(C(=O)OCC)C1c1ccccc1/C=C/C(=O)OC(C)(C)C
5. CCC1(c2ccccc2)C(=O)NC(=O)NC1=O
6. CCC(C)(C)C(=O)O[C@H]1C[C@@H](C)C=C2C=C[C@H](C)[C@H](CC[C@@H]3C[C@@H](O)CC(=O)O3)[C@H]21
7. COc1cc(NC(C)CCCN)c2ncccc2c1 (stereo unspecified)
8. Cc1cc(C(C)(C)C)c(O)c(C)c1CC1=NCCN1

Not Active
Not Active
Not Active
Not Active
Not Active
Not Active
Not Active
Not Active

Record IC50 for all entries; do not skip any.
1. Nc1ccc(C(=O)O)c(O)c1
2. O=c1[nH]c2ccccc2c2ccccc12
3. O=C(NCCN1CCOCC1)c1ccc(Cl)cc1 [MOCLOBEMIDE]
4. Cc1ccc(S(=O)(=O)NC(=O)NN2CCCCCC2)cc1 [TOLAZAMIDE]
5. Cc1nnc(NS(=O)(=O)c2ccc(N)cc2)s1
6. O=C(O)CNCP(=O)(O)O [GLYPHOSATE]

1. Not Active
2. Not Active
3. Not Active
4. Not Active
5. Not Active
6. Not Active

Record IC50 for all entries; do not skip any.
1. O=C(O)c1ccccc1
2. CCN(CC)C(=S)SSC(=S)N(CC)CC

1. Not Active
2. Not Active
